Tested on: MOLT-4 leukemia
Test: NCI tumour cell line growth inhibition, 48 h
The compounds listed here are annotated with their GI50.
property: GI50

>  <compound>
COCCOCCOCc1n(Cc2ccc3ccccc3n2)c2ccccc2[n+]1Cc1ccc2ccccc2c1

>  <experimental_result>
0.47 µM

$$$$
>  <compound>
O=S1(=O)NCCCN1CCNc1nccc(-c2c(-c3cccc(O)c3)nc3sccn23)n1

>  <experimental_result>
22.9 µM

$$$$
>  <compound>
CNC(=O)c1cc2c(Oc3ccc(NC(=O)C4(C(=O)Nc5ccc(F)cc5)CC4)cc3)ccnc2cc1OC

>  <experimental_result>
2.23 µM

$$$$
>  <compound>
OC(CN1CC1)C(O)CN1CC1 (stereo not given)

>  <experimental_result>
> 50 µg/mL

$$$$
>  <compound>
COc1ccc(CC(C)C(C)Cc2ccc(OC)c(OC)c2)cc1OC (stereo not given)

>  <experimental_result>
> 1400 µM

$$$$
